All figures here come from the supplement of paper PMC8975748.

system: Saccharomyces cerevisiae BY4741 SeMeCo community; experiment: z-score of subpopulation abundance vs DMSO median, subpopulation auxotrophic for L; higher = larger share of this subpopulation than in DMSO controls; settings: 10 µM; 24 h; SM minimal medium; subpopulation (auxotrophy): L
Reported z-score of subpopulation abundance values follow for various compounds
Would you mind answering with just the numeric figure?

COc1cc(Cc2cnc(N)nc2N)cc(OC)c1OC [Trimethoprim]
0.44

So what z-score of subpopulation abundance did Cc1cc(-c2ccc(/N=N/c3ccc4c(S(=O)(=O)O)cc(S(=O)(=O)O)c(N)c4c3O)c(C)c2)ccc1/N=N/c1ccc2c(S(=O)(=O)O)cc(S(=O)(=O)O)c(N)c2c1O [Evans Blue] get with Saccharomyces cerevisiae BY4741 SeMeCo community?
-1.65

Form entry - test system: Saccharomyces cerevisiae BY4741 SeMeCo community; read-out: z-score of subpopulation abundance; compound: O=C(O)C1=C(CSc2nnnn2CS(=O)(=O)O)CS[C@@H]2[C@H](NC(=O)[C@H](O)c3ccccc3)C(=O)N12 [Cefonicid sodium]
-0.08
